Test system: LOX IMVI melanoma
measurement notes: NCI-60 one-dose screen, 48 h (100 = growth as untreated, 0 = no growth, -100 = all killed)
condition info: 10 µM unless noted
About 83,000 compounds went through this panel and 20% of them were active in at least one assay; those are over-represented in the sample as a whole.
So basically, the class depends on measured growth, and the ranges are category 1 = under 40%, category 2 = from 40% up to 70%, category 3 = 70% and over

Completed entries (count: 9):
CC(CN1CCN(C)CC1)CN1c2ccccc2Sc2ccc(C(F)(F)F)cc21 (stereo unspecified) | category 1
COc1cccc(Cn2c(-c3nonc3NC(C)=O)nc3ccccc32)c1 | category 2
NC(=Nc1ccccc1)SCCCSC(N)=Nc1ccccc1 | category 3
C/C(=N\NC(=S)Nc1ccccc1)c1ccccn1 | category 1
CCOC(=O)c1ccccc1SC(C[N+](=O)[O-])c1ccccc1 (stereo unspecified) | category 1
CN(CCO)c1ccc(N2Cc3ccccc3OC3=C2C(=O)c2c(O)ccc(O)c2C3=O)cn1 | category 1
CC(=O)c1nn(-c2ccccc2)/c(=N\N=C\c2coc3ccc(F)cc3c2=O)s1 | category 3
FC1(F)CCN(Cc2c[nH]c3cc(Cl)ccc23)C[C@H]1CCc1ccccc1 | category 2
CCOC(C)(c1ccc(Cl)cc1)C1CCNCC1 (stereo unspecified) | category 2

Okay, now this compound:
Asked: Pick a category. Item: O=C1C=CC(=O)N1CO
Given back: category 3

Hey, just so you know, these numbers are from PubChem BioAssay (NCI).
